// reported growth per item
System: A498 renal
Experiment: NCI-60 one-dose screen, 48 h (100 = growth as untreated, 0 = no growth, -100 = all killed)
Details: 10 µM unless noted
About 83,000 compounds went through this panel and 20% of them were active in at least one assay; those are over-represented in the sample as a whole.
Entry rule: numbers only, all in %.

Ask: Would you mind telling me what growth value was observed for O=C(CCCCCCNC(=O)C(O)(O)C(F)(F)F)Nc1ncc(-c2ccc(Br)cc2)s1 ?
Reply: -41.2

Ask: Field request: growth | item: CCCCN1C(=O)/C(=c2\sc3n(c2=O)C2C(NN=3)N(CC)C(=O)N2CC)c2cccc(C)c21 (stereo not drawn)
Reply: 5.04

Ask: Any idea what growth was measured for N#Cc1cnc2ccc(-c3cnc4n[nH]nc4c3)cc2c1N1CCc2cc(F)c(Cl)cc21 ?
Reply: -11.8

###

System: NCI-H23 lung
Experiment: NCI-60 one-dose screen, 48 h (100 = growth as untreated, 0 = no growth, -100 = all killed)
Conditions: 10 µM unless noted
The panel holds about 83,000 compounds, 20% with a hit somewhere; the sample as a whole holds those more often.
Measured growth determines class: c1: < 40%; c2: ≥ 40% and < 80%; c3: ≥ 80%

These solved cases illustrate the format of a correct answer.
- MOLECULE: "O=C(CCCCCCNC(=O)C(O)(O)C(F)(F)F)Nc1nc2ccccc2s1"
  CLASS ASSIGNMENT: "c1"
- MOLECULE: "Cc1ccccc1N1CCN(C2=C(Cl)C(=O)c3ncccc3C2=O)CC1"
  CLASS ASSIGNMENT: "c1"
- MOLECULE: "O=C1c2ccccc2C23C(=C(c4cncnc4)c4ccccc42)CCCN13 (stereo not drawn)"
  CLASS ASSIGNMENT: "c3"

Ask: Which growth category applies to C=C(C)[C@@H]1CC[C@]2(C(=O)O)CC[C@]3(C)[C@H](CC[C@@H]4[C@@]5(C)C/C(=C/c6ccccn6)C(=O)C(C)(C)[C@@H]5CC[C@]43C)[C@@H]12 here?
Reply: c1

Ask: Would you mind sorting NC1=NC2(CCCC2)N(c2ccc(S(=O)(=O)Nc3nccs3)cc2)C(N)=N1 into the appropriate category?
Reply: c3

###

Test system: OVCAR-5 ovarian
Assay: NCI-60 one-dose screen, 48 h
Settings: 10 µM unless noted
The panel holds about 83,000 compounds, 20% with a hit somewhere; the sample as a whole holds those more often. Active and inactive are the calls of the source. How the source made its calls: active means growth percent below 10; inactive means the rest.
// allowed return values: true = active, false = inactive

- COMPOUND: "Cc1ccc(CSC2=C(Cl)CN(c3ccc(Cl)cc3)C2=O)cc1"
  CLASS ASSIGNMENT: "false"
- COMPOUND: "O=S(=O)(Oc1ccc(-c2cn3ccoc3n2)cc1)c1cccc(C(F)(F)F)c1"
  CLASS ASSIGNMENT: "false"
- COMPOUND: "COCCOc1ccc2ncc(C#Cc3cncc(C(=O)Nc4ccc(CN5CCN(C)CC5)c(C(F)(F)F)c4)c3)n2n1"
  CLASS ASSIGNMENT: "false"
- COMPOUND: "Clc1ccc2c(N/N=C/c3c[nH]c4ccccc34)ccnc2c1"
  CLASS ASSIGNMENT: "true"

Ask: # outcome recorded in this test, key = CCOC(=O)c1c(NC(=O)c2ccc(C(F)(F)F)cc2)sc2c3c(ccc12)OCN(C)C3
Reply: false

Ask: For C/C(=C(\c1ccc(O)cc1)c1ccc(OCCN2CCCCCC2)cc1)c1ccc(Cl)cc1 , which call appears in the assay record?
Reply: true

Ask: Record request — test call for O=C(CCCCCCN1CC(=O)N2[C@@H](c3ccc(Cl)s3)c3[nH]c4ccccc4c3C[C@H]2C1=O)NO
Reply: false

###

Reported values of growth for individual entries
System: SF-539 CNS
Test: NCI-60 one-dose screen, 48 h (100 = growth as untreated, 0 = no growth, -100 = all killed)
Conditions: 10 µM unless noted
Compounds without any hit were thinned out: in the full panel of roughly 83,000, 20% have a hit.
All answers are understood in %, so give the number only.

Examples with answers:
- SMILES ENTRY: "Cc1ccc(CSC2=C(Cl)CN(c3ccc(Cl)cc3)C2=O)cc1"
  TARGET UNDER TEST: "SF-539 CNS"
  growth / %: 103
- SMILES ENTRY: "Cc1c(C(=O)/C=C/c2ccc(Cl)cc2)nnn1-c1ccc2oc(=O)ccc2c1"
  TARGET UNDER TEST: "SF-539 CNS"
  growth / %: 99.5
- SMILES ENTRY: "CCCCCCNC(=O)Oc1ccc(/C(=C(/C)c2ccc(Cl)cc2)c2ccc(OCCN3CCCCCC3)cc2)cc1"
  TARGET UNDER TEST: "SF-539 CNS"
  growth / %: 67
- SMILES ENTRY: "N#Cc1cnc2ccc(-c3cnc4n[nH]nc4c3)cc2c1N1CCc2cc(F)c(Cl)cc21"
  TARGET UNDER TEST: "SF-539 CNS"
  growth / %: 2.37

Ask: What value of growth has been reported for the following compound? CN1CCN(Cc2ccc(NC(=O)c3cncc(C#Cc4cnc5ccc(N6CCOCC6)nn45)c3)cc2C(F)(F)F)CC1
Reply: -90.8

###

Test system: SK-OV-3 ovarian
Test: NCI-60 one-dose screen, 48 h (100 = growth as untreated, 0 = no growth, -100 = all killed)
Conditions: 10 µM unless noted
Compounds without any hit were thinned out: in the full panel of roughly 83,000, 20% have a hit.
Grouping key: growth. Bins: lower segment: < 50%; middle segment: ≥ 50% and < 90%; upper segment: ≥ 90%

Previously resolved entries follow.
- COMPOUND: "Cc1ccccc1Nc1nc(SC(C)C)nc(-c2ccccc2)c1C#N"
  CLASS ASSIGNMENT: "upper segment"
- COMPOUND: "COc1ccc(Cn2cc(C#N)c(N)c2C(C)=O)cc1"
  CLASS ASSIGNMENT: "upper segment"
- COMPOUND: "O=C1[C@H]2Cc3c([nH]c4ccccc34)[C@H](c3ccc(Cl)cc3)N2C(=O)CN1C1CCN(CC2CCCCC2)CC1"
  CLASS ASSIGNMENT: "upper segment"
- COMPOUND: "Cn1cc(-c2cc3ncnc(Nc4ccc(NC(=O)Nc5cc(C(C)(C)C)on5)cc4)c3s2)cn1"
  CLASS ASSIGNMENT: "lower segment"
- COMPOUND: "C=C(C)[C@@H]1CC[C@]2(COCCCNCCCN)CC[C@]3(C)[C@H](CC[C@@H]4[C@@]5(C)CC[C@H](O)C(C)(C)[C@@H]5CC[C@]43C)[C@@H]12"
  CLASS ASSIGNMENT: "upper segment"
- COMPOUND: "COCCOc1ccc2ncc(C#Cc3cncc(C(=O)Nc4ccc(CN5CCN(C)CC5)c(C(F)(F)F)c4)c3)n2n1"
  CLASS ASSIGNMENT: "lower segment"

Ask: Determine which band this compound sits in: CSc1ccc(/C(=N/N=C(N)N)c2ccc(F)cc2)cc1
Reply: lower segment

Ask: Textbook exercise: identify the category of the compound given here, Cn1ncc2ncc(-c3ccc4ncc(C#N)c(N5CCc6cc(F)c(Cl)cc65)c4c3)cc21 , according to its measured value.
Reply: lower segment

Ask: In plain terms, what class is Clc1cccc(/C=N/Nc2nc(N/N=C/c3cccc(Cl)c3)nc(N3CCCCC3)n2)c1 ?
Reply: upper segment

Ask: Form field 'band' for CCOP(=O)(OCC)OC[C@]12CCC(C)(C)CC1C1=CC[C@@H]3[C@@]4(C)CCCNC(C)(C)[C@@H]4CC[C@@]3(C)[C@]1(C)CC2 (some centres not stated)
Reply: upper segment

Ask: Category of C[C@H](Nc1ncnc2ccc(-c3cnc(Cl)c(NS(C)(=O)=O)c3)cc12)c1ccccc1 :
Reply: lower segment

Ask: Could you place CCOC(=O)Nc1ccc2c(ccn2C(=O)c2cccc(F)c2)c1 in its proper category? Many thanks.
Reply: middle segment

###

System: K-562 leukemia
Test: NCI-60 one-dose screen, 48 h
Conditions: 10 µM unless noted
The panel holds about 83,000 compounds, 20% with a hit somewhere; the sample as a whole holds those more often. Activity calls are given as the source filed them. How the source made its calls: active means growth percent below 10; inactive means the rest.
Could you please pick one outcome from this set? yes (1) for active, no (0) for inactive

These recorded examples may help you get a feel for the data.
- SMILES ENTRY: "Cc1ccc2c(n1)C(=O)C(Cl)=C(Nc1ccc(C(=O)OC(C)(C)C)cc1)C2=O"
  TARGET UNDER TEST: "K-562 leukemia"
  CLASS ASSIGNMENT: "yes (1)"
- SMILES ENTRY: "CC[C@H](CC[C@@H](C)[C@H]1CC[C@H]2[C@@H]3CC(=O)C4=CC(=O)/C(=C/c5ccc([N+](=O)[O-])cc5)C[C@]4(C)[C@H]3CC[C@]12C)C(C)C"
  TARGET UNDER TEST: "K-562 leukemia"
  CLASS ASSIGNMENT: "no (0)"
- SMILES ENTRY: "O=C(N/N=C\\c1ccc([N+](=O)[O-])cc1)c1ccc2nc(-c3ccc(Br)cc3)[nH]c2c1"
  TARGET UNDER TEST: "K-562 leukemia"
  CLASS ASSIGNMENT: "yes (1)"

Ask: What did the test return for Cc1ccsc1[C@H]1c2[nH]c3ccccc3c2C[C@H]2C(=O)N(CCCCCCC(=O)NO)CC(=O)N12 ?
Reply: no (0)

Ask: Which result was noted for this molecule in the test: CS(=O)(=O)c1nccc(-c2c(-c3cccc(OCc4ccc(Cl)c(C(F)(F)F)c4)c3)nc3sccn23)n1
Reply: no (0)

Ask: Assay result, entry Oc1[nH]c2ccc(Cl)cc2c1N=Nc1nc(N=Nc2c(O)[nH]c3ccc(Cl)cc23)nc(N2CCOCC2)n1 — outcome?
Reply: no (0)

Ask: Recorded call for NCCNC(=O)c1cccc(COc2ccccc2NC(=O)c2cc(Br)c(Br)[nH]2)c1 ?
Reply: yes (1)

Ask: Give the logged outcome of this assay for the following molecule: Cn1cc(-c2nn3cc(-c4ccncc4)nc3s2)c2cc(F)ccc21
Reply: no (0)

Ask: Would you mind telling me which call this test gave C#Cc1cc(C(=O)Nc2ccc(CNCCN3CCOCC3)c(C(F)(F)F)c2)ccc1C ?
Reply: no (0)

Ask: Write down the call the test reported for this molecule. Item: CC1(C)C=Cc2cc(/C(N)=N/C(N)=N/c3nc4ccccc4s3)ccc2O1
Reply: no (0)

Where do these numbers come from? They come from PubChem BioAssay (NCI).
